Exercise: for every item that follows, state its recorded TGI.
System: HCT-15 colon
ASSAY METHOD TEXT: NCI tumour cell line growth inhibition, 48 h

Q: Fill in the blank: the reported TGI of Cc1cccc2cc3ccc4ccccc4c3cc12 is ____.
Result: > 100 µM

Q: Fill in the blank: the reported TGI of CC1(C)OCC(C2OC(=O)C(OCc3ccccc3)=C2OCc2ccccc2)O1 (centres undefined) is ____.
Result: > 100 µM

Q: Fill in the blank: the reported TGI of O/N=C1/C(=C/c2ccccc2)CCCC1C(NO)c1ccccc1 (centres undefined) is ____.
Result: > 100 µM

Q: Fill in the blank: the reported TGI of COc1ccc2c(c1)Cc1c-2[nH]c2cc3c(cc2c1=O)OCO3 is ____.
Result: > 100 µM

Q: Fill in the blank: the reported TGI of COc1cc(C(c2cc(OC)c(OC)c(OC)c2)N2C(=O)CCC2C(=O)O)cc(OC)c1OC (centres undefined) is ____.
Result: > 100 µM

Q: Fill in the blank: the reported TGI of C=CC[C@@]1(C#N)C[C@H](C[C@]2(C#N)C[C@H](CCl)OC(C)(C)O2)OC(C)(C)O1 is ____.
Result: > 100 µM

Q: Fill in the blank: the reported TGI of C=C1C(=O)O[C@H]2[C@H]1CC/C(COC(=O)NCc1cccc(OC)c1)=C\CC[C@@]1(C)O[C@@H]21 is ____.
Result: 2.82 µM

Q: Fill in the blank: the reported TGI of Nc1n[n+]([O-])c2cnccc2[n+]1[O-] is ____.
Result: > 100 µM

Q: Fill in the blank: the reported TGI of CN1CCN(c2ccc3nc(-c4ccc5nc(-c6ccc(N(C)CCCl)cc6)[nH]c5c4)[nH]c3c2)CC1 is ____.
Result: 26.1 µM

Q: Fill in the blank: the reported TGI of CN1CCN(CCCCNc2cc3c4ccccc4c(NCCCCN4CCN(C)CC4)cc3c3ccccc23)CC1 is ____.
Result: 2.88 µM

Q: Fill in the blank: the reported TGI of CC(C)(C)[Si](Nc1ccccc1)(c1ccccc1)c1ccccc1 is ____.
Result: 28.4 µM

Q: Fill in the blank: the reported TGI of CCOc1ccc(-n2c(=O)n3c(Nc4ccc(Cl)cc4)nc4c(c(=O)n(C)c(=O)n4C)n3c2=O)cc1 is ____.
Result: 42 µM

Q: Fill in the blank: the reported TGI of C/C(CC(=O)Nc1ccc(NC(=O)/C(C)=N/NS(=O)(=O)c2ccc(C)cc2)cc1)=N\NS(=O)(=O)c1ccc(C)cc1 is ____.
Result: > 100 µM

Q: Fill in the blank: the reported TGI of CCOC(=O)C1CCCC1S(=O)(=O)c1ccc(C)cc1 (centres undefined) is ____.
Result: > 100 µM

Q: Fill in the blank: the reported TGI of COc1ccc(CCN2CCOCC2)cc1 is ____.
Result: > 100 µM

Q: Fill in the blank: the reported TGI of CC1(C)N=C(/C(C#N)=[N+](/[O-])C(=O)c2ccccc2)C(C)(C)N1O is ____.
Result: > 100 µM

Q: Fill in the blank: the reported TGI of COC(=O)C1CCC(N2C(=O)CCC2C(=O)OC)=N1 (centres undefined) is ____.
Result: > 100 µM

Q: Fill in the blank: the reported TGI of C=CC1=C(C)C(Cc2[nH]c(/C=c3\[nH]/c(=C/C4=NC(=O)C(C)/C4=C\C)c(C)c3CCC(=O)O)c(CCC(=O)OC)c2C)NC1=O (centres undefined) is ____.
Result: 53.9 µM

Q: Fill in the blank: the reported TGI of N=C(N)Cn1cnc2ccccc21 is ____.
Result: > 100 µM

Q: Fill in the blank: the reported TGI of O=C(O)c1ccc(/C=N\N(CCO)C2=NCCN2)cc1 is ____.
Result: > 100 µM

Q: Fill in the blank: the reported TGI of O=c1[nH]c2cc([N+](=O)[O-])c(N(CCO)CCO)c([N+](=O)[O-])c2[nH]1 is ____.
Result: > 100 µM

Q: Fill in the blank: the reported TGI of Cc1noc(C)c1N=Nc1ccc2nonc2c1N is ____.
Result: > 100 µM

Q: Fill in the blank: the reported TGI of O=C(Cc1nc2ccccc2s1)C(=O)Nc1ccc(Cl)cc1Cl is ____.
Result: > 100 µM

Q: Fill in the blank: the reported TGI of CCNC(=O)CCCCC(=O)c1c(C)[nH]c(/C=C2\N=C(c3ccc[nH]3)C=C2OC)c1C is ____.
Result: 4.4 µM

Q: Fill in the blank: the reported TGI of CN(C)NC(=S)NC12CC3CC(CC(C3)C1)C2 is ____.
Result: > 100 µM

Q: Fill in the blank: the reported TGI of CC(Nc1cc(=O)n(C)c(=O)[nH]1)c1ccccc1 (centres undefined) is ____.
Result: > 100 µM

Q: Fill in the blank: the reported TGI of COc1cc(/C=N/O)nc(-c2ccccn2)c1 is ____.
Result: > 100 µM

Q: Fill in the blank: the reported TGI of S=C1NC2=C(COC/C2=C\c2ccccc2Cl)C(c2ccccc2Cl)N1 (centres undefined) is ____.
Result: > 100 µM

Q: Fill in the blank: the reported TGI of CN(C)CCC(=O)NCc1c2nc3ccccc3nc2n2ccccc12 is ____.
Result: > 100 µM

Q: Fill in the blank: the reported TGI of COC(=O)C1(Cc2ccc3c(c2)CCC3)Cc2cc3c(cc2C1=O)CCC3 (centres undefined) is ____.
Result: > 46.4 µM

Q: Fill in the blank: the reported TGI of O=C(Nn1c2c(sc1=NC1CC1)C(=O)c1ccccc1C2=O)c1cc2ccc1CCc1ccc(cc1)CC2 is ____.
Result: 3.24 µM

Q: Fill in the blank: the reported TGI of Cc1cc(O)c(/C=N/C(=O)NN)c(=O)o1 is ____.
Result: > 100 µM

Q: Fill in the blank: the reported TGI of FC(F)(F)c1nc2cc(SSc3cc4nc(C(F)(F)F)[nH]c4cc3Cl)c(Cl)cc2[nH]1 is ____.
Result: > 100 µM

Q: Fill in the blank: the reported TGI of Cc1ccc(C(=O)Nc2ccccc2C(=O)N/N=C(\c2ccccc2)c2ccccn2)cc1 is ____.
Result: > 100 µM

* * *

Test system: OVCAR-5 ovarian
ASSAY METHOD TEXT: NCI tumour cell line growth inhibition, 48 h
ENDPOINT LABEL: TGI

Q: Fill in the blank: the reported TGI of CCOC(=O)c1cn2ncnc(Oc3ccc(NC(=O)NCCN(CC)CC)c(Cl)c3)c2c1C is ____.
Result: 16.1 µM

Q: Fill in the blank: the reported TGI of O=C(O)C1Cc2ccccc2OC1=O (centres undefined) is ____.
Result: > 100 µM

Q: Fill in the blank: the reported TGI of COc1cc(C(=C2SCCS2)c2nccc3cc(OC)c(OC)cc23)c([N+](=O)[O-])cc1OC is ____.
Result: > 100 µM

Q: Fill in the blank: the reported TGI of Nc1ccc(S(=O)(=O)c2ccc(N=[N+]([O-])c3ccc(S(=O)(=O)c4ccc(N)cc4)cc3)cc2)cc1 is ____.
Result: > 100 µM

Q: Fill in the blank: the reported TGI of C=C(C)C1CCC2(CO)C(O)CC3(C)C(CCC4C5(C)CCC(O)C(C)(C)C5CCC43C)C12 (centres undefined) is ____.
Result: > 100 µM

Q: Fill in the blank: the reported TGI of O=C1/C(=C\c2cn(CC(O)CN3CCCCC3)c3ccccc23)c2ccccc2N1c1c(Cl)cccc1Cl (centres undefined) is ____.
Result: 2.92 µM

Q: Fill in the blank: the reported TGI of COc1ccc2nc(C3=CN(C4OC(CO)C(O)C(O)C4O)C4C=CC=CC34)sc2c1 (centres undefined) is ____.
Result: 83.2 µM

Q: Fill in the blank: the reported TGI of COc1ccc(CCN2CCOCC2)cc1 is ____.
Result: > 100 µM

Q: Fill in the blank: the reported TGI of c1ccc([P+](CCC[P+](c2ccccc2)(c2ccccc2)c2ccccc2)(c2ccccc2)c2ccccc2)cc1 is ____.
Result: > 100 µM

Q: Fill in the blank: the reported TGI of COc1ccc(CCNC(=S)/N=C\C2=C(O)c3ccccc3C2=O)cc1OC is ____.
Result: > 100 µM

Q: Fill in the blank: the reported TGI of O=C(Nn1c2c(sc1=NC1CC1)C(=O)c1ccccc1C2=O)c1cc2ccc1CCc1ccc(cc1)CC2 is ____.
Result: 3.53 µM

Q: Fill in the blank: the reported TGI of CCN1CCN(c2cc(C)nc(NCc3cc(Nc4ccnc5cc(Cl)ccc45)ccc3F)n2)CC1 is ____.
Result: 17.7 µM

Q: Fill in the blank: the reported TGI of CCC(C)N1CN(c2ccccc2)C2(CCN(CCCC(=O)c3ccc(F)cc3)CC2)C1=O (centres undefined) is ____.
Result: 8.12 µM

Q: Fill in the blank: the reported TGI of CN(C)NC(=S)NC12CC3CC(CC(C3)C1)C2 is ____.
Result: > 100 µM

Q: Fill in the blank: the reported TGI of O=C(O)C1(CC(CCCN2CCCCC2)c2ccccc2)CCCC1 (centres undefined) is ____.
Result: > 100 µM

Q: Fill in the blank: the reported TGI of CC(=O)NNc1nc(C)c(C(/C=C/c2ccc(Cl)cc2)=N/NC(=S)NN)s1 is ____.
Result: > 100 µM

Q: Fill in the blank: the reported TGI of Cc1cc(O)c(/C=N/C(=O)NN)c(=O)o1 is ____.
Result: > 100 µM

Q: Fill in the blank: the reported TGI of CC(=O)OC1C/C(C)=C/[C@H](O)CC(C)/C=C/[C@@]2(C)CCC(C(C)(C)O)C12 (some centres undefined) is ____.
Result: > 100 µM

Q: Fill in the blank: the reported TGI of COc1ccc(-c2cc3nccn3c(Nc3ncccc3C(N)=O)n2)cc1OC is ____.
Result: > 100 µM

Q: Fill in the blank: the reported TGI of CNc1nc(=O)c(C#N)c(-c2ccc(C)cc2)s1 is ____.
Result: > 100 µM

Q: Fill in the blank: the reported TGI of O=C(NN1C(=O)C(Cl)C1c1ccc([N+](=O)[O-])cc1)c1ccccc1O (centres undefined) is ____.
Result: > 100 µM

Q: Fill in the blank: the reported TGI of O=C(Cc1nc2ccccc2s1)C(=O)Nc1ccc(Cl)cc1Cl is ____.
Result: > 100 µM

Q: Fill in the blank: the reported TGI of CCC(=O)n1c(=O)n(-c2ccc([N+](=O)[O-])cc2)c(=O)n1C(=O)CC is ____.
Result: > 100 µM

Q: Fill in the blank: the reported TGI of CN(/C(=N\O)c1ccccc1)c1ccccc1 is ____.
Result: > 100 µM
